Provide the reported GI50 of each item.
# System: SF-295
# Protocol: NCI tumour cell line growth inhibition, 48 h
Activity calls are given as the source filed them. Rule as the data show it: active = GI50 up to about 1.1 µM and inactive = higher. Where a SMILES comes first, the peptide text is derived from it.

For the compound O=C1NC(=S)NC(=O)C1=Cc1cccc2cc3ccccc3cc12 , what GI50 is on record? 2.46 µM (inactive)

Requested read-out: GI50. Entry: O=C(c1nc2ccc(Cl)cc2[nH]c1=O)C(O)c1cccc([N+](=O)[O-])c1 (stereo unspecified) > 100 µM (inactive)

Name the recorded GI50 for O=C1Cc2cn[nH]c2-c2ccccc2N1 . 61 µM (inactive)

Please report the recorded GI50 for CCC(C)C1NC(=O)C2CCCN2C(=O)CNC(=O)C(C)NC(=O)C(Cc2ccccc2)NC(=O)C(C(C)C)NC1=O (stereo unspecified) (cyclo(GPIVFA); configuration not given here) . > 100 µM (inactive)

For the compound COC(=O)C1Cc2c(C)cccc2C1=O (stereo unspecified) , what GI50 is on record? > 100 µM (inactive)

Which GI50 value belongs to CC(O)c1ccc[n+](Cc2ccccc2)c1 (stereo unspecified) ? > 400 µM (inactive)

Provenance of the data: ChEMBL document CHEMBL1201862
